Reference for the values: paper PMC4245986

Target: T1, GST-SH3 domain (derived from BIN1) (human)
T1 sequence (O00499 whole entry, looked up): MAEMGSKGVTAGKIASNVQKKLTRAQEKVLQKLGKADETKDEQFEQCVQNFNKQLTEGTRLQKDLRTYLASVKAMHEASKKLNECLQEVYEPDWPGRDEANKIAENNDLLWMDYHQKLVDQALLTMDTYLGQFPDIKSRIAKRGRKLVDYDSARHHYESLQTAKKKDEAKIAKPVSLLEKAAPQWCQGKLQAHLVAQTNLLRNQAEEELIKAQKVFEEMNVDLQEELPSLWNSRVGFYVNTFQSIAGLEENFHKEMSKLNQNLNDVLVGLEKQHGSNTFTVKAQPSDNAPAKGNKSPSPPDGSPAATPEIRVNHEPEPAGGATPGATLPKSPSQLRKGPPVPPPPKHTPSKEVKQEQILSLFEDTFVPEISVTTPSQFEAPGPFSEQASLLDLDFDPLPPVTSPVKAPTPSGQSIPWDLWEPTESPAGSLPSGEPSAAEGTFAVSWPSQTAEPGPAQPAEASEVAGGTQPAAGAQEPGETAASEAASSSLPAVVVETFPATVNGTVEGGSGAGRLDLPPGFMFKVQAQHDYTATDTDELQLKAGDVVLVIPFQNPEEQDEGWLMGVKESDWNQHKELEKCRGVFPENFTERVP
Assay: ITC
parameter: pKd
Formally, pKd is defined as -log10 of the concentration c, with c in mol/L.

Recorded pKd (binder PPQIPSRPVRIPPGI [dynamin 2-derived proline-rich domain peptide] ): 4.17
